# assay_protocol: 384-well plate pilot, post-Golgi transport modulator project, inhibition of yeast transport mutant growth (AID 636)
# measurement_setup: absorbance 615 nm, about 18 h, stronger effect = higher value
measured_property: inhibition (%)
The answer is to be given in %; state only the numeric part.

Worked examples, 5 compounds total:
>  <compound>
CCN(CC)CCOC(=O)C(c1ccccc1)c1ccccc1

>  <inhibition / %>
-4.81

$$$$
>  <compound>
Cc1noc(C)c1COc1cccc(C(=O)Oc2ccc3c(c2)OCO3)c1

>  <inhibition / %>
-4.81

$$$$
>  <compound>
CCc1ccc2oc(-c3cc(N)ccc3Cl)nc2c1

>  <inhibition / %>
-0.54

$$$$
>  <compound>
Cc1nnc(SCC(=O)Nc2nccs2)s1

>  <inhibition / %>
-6.67

$$$$
>  <compound>
CC(C)c1ccc(CNc2ccc(N3CCOCC3)cc2)cc1

>  <inhibition / %>
-6.89

$$$$

Looking up "O=C(CN1CCN(c2ccccn2)CC1)N1c2ccccc2CCc2ccccc21" , I found its inhibition recorded as -6.08

Notebook: "Cc1nc2ccc(S(=O)(=O)NCC(=O)N3CCc4ccccc4C3)cc2s1" , inhibition read as 2.47

The compound listed as "COc1ccc(C(=O)NC(=O)CSc2nnc(-c3ccco3)n2-c2ccccc2)cc1" shows inhibition equal to -7.3

Memo: "Cc1ccc(NC(=O)CN(C)S(=O)(=O)c2cccc3nsnc23)cc1Cl" , reported inhibition: 1.76

According to the records, this compound CC1Cc2ccccc2N1CC(=O)NC(=O)NCc1ccco1 (stereo unspecified) displays inhibition of -0.27

Query "COc1ccc(C(=O)Nc2ccccc2C(=O)NCCN2CCOCC2)cc1" yields inhibition of 0

* * *

viability values for the molecules below.
# assay_protocol: SK-BR-3 cell growth inhibitors, pilot screen, 24 h, human (AID 572);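 further: compound exposure lasted between 18 and 24 h rather than exactly 24 h; 100% = carrier-treated control wells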
# measurement_setup: SK-BR-3 viability, CellTiter-Glo luminescence, at 10 µM, stronger effect = lower value
Value expressed in %; do not type the unit.

>  <molecule>
CC1CCCN(C(=O)CN2CCN(C(=O)c3ccco3)CC2)C1 (stereo not drawn)

>  <viability / %>
95.5

$$$$

Lab note: next molecule to report on.
Consider Cc1ccc2c(c1C)NC(C(=O)O)C1CC=CC21 (stereo not drawn) . Its measured viability is 91

* * *

# assay_protocol: 384-well plate pilot, post-Golgi transport modulator project, inhibition of yeast transport mutant growth (AID 636)
# measurement_setup: absorbance 615 nm, about 18 h, stronger effect = higher value
measured_property: inhibition (%)
Report as a plain number; the unit % is understood.

// below: answered compounds
>  <compound>
CCC(C)(C)n1nnnc1C(c1cc2cc(C)ccc2[nH]c1=O)N1CCCC1 (stereo not drawn)

>  <inhibition (%)>
-4.55

$$$$
>  <compound>
O=C(NS(=O)(=O)c1ccc(NC(=O)C2CCCO2)cc1)c1ccccc1 (stereo not drawn)

>  <inhibition (%)>
-6.35

$$$$
>  <compound>
CCC(=O)Nc1nn(C)c2nc3c(C)cccc3cc12

>  <inhibition (%)>
-3.47

$$$$
>  <compound>
CCOC(=O)c1cnc(-n2nc(C)cc2C)nc1N1CC(C)OC(C)C1 (stereo not drawn)

>  <inhibition (%)>
-3.47

$$$$

Entry "CC(=O)OCC(=O)[C@@]1(O)CC[C@H]2[C@@H]3CCC4=CC(=O)CC[C@]4(C)[C@H]3[C@@H](O)C[C@@]21C" ; inhibition = -4.29

compound "COC(=O)c1cc(OC)c(OC)cc1NC(=O)CC1CCCCC1" , inhibition observed: 0.79

Field inhibition (entry "CCOC(=O)N1CCC(NC(=O)Cc2ccc(-n3c(=O)[nH]c4ccccc4c3=O)cc2)CC1" ) reads -5.06

// "Cc1csc(NC(=O)CSc2nnc(Cc3cccn3C)n2-c2ccc(F)cc2)n1" : inhibition value = 4.67

For "Cc1oncc1C(=O)Nc1ccc(C(F)(F)F)cc1" the compound record lists inhibition as -1.69

inhibition measured on "Cc1cc(NC(=O)CSc2nnc(C3CC3)n2C)no1" = -0.53

inhibition reported for this compound "CCCCN(Cc1cc2cc(OC)ccc2[nH]c1=O)C(=O)c1ccccn1" : -5.14

Recorded result, "CCn1c(SCC(=O)Nc2cc(C)on2)nc2sc3c(c2c1=O)CCCC3" , inhibition: -4.93

Value of measured inhibition for the entry O=C(NC(NC1CCS(=O)(=O)C1)C(=O)c1cccs1)c1ccccc1 (stereo not drawn) : -1.17

In plain terms, O=C(CSc1nc2cc(S(=O)(=O)N3CCOCC3)ccc2o1)NC1CCCc2ccccc21 (stereo not drawn) has a documented inhibition of -3.6

// sample "COc1ccc(N2C(=O)C(Cl)=C(N3CCCC3)C2=O)cc1" , its inhibition was -6.08

Noted for "CC(C)[C@H](NC(=O)OC(C)(C)C)c1nnc(S(=O)(=O)Cc2c(F)cccc2Cl)o1" : its inhibition reads -2.76

Reported inhibition for CCN(CC)C(=O)C1=C(C)NC(=O)NC1c1c(F)cccc1Cl (stereo not drawn) was -3.82

// inhibition value for "CCOc1ccc(OCC)c2sc(C)nc12" : 0.79

Form field inhibition, entry Cc1ccc(C2CC(c3cccc(Br)c3)Nc3nnnn32)cc1 (stereo not drawn) : -2.11

The value of inhibition measured for the compound "Cn1nnnc1SCC1=C(C(=O)O)N2C(=O)[C@@H](NC(=O)[C@H](O)c3ccccc3)[C@H]2SC1" turned out to be -1.3
